- assay summary: NCI Yeast Anticancer Drug Screen. Data for the bub3 strain (AID 167)
- protocol conditions: S. cerevisiae bub3 mutant strain, at 100.0 µM
- Protocol: Growth inhibition of yeast strains with defined genetic alterations is measured as a screen for potential anti-cancer activity. Selected strains with alterations in DNA damage repair or cell cycle control were exposed to compounds and growth inhibition was measured relative to vehicle treated controls. The strain used in this assay is bub3
About 79,000 compounds went through this panel and 15% of them were active in at least one assay; those are over-represented in the sample as a whole. Calls of active or inactive are those of the source. Cut-off read from the data, not from the text of the source: active = growth inhibition above about 70%; inactive = the rest.
Outcome codes: yes (1) = active, no (0) = inactive

- molecule: "S=c1[nH]c2cc3ccccc3cc2[nH]1"
  assigned category: "no (0)"
- molecule: "N/C(=N/N=C/c1cc(Br)cc(Br)c1O)NO"
  assigned category: "yes (1)"
- molecule: "NC(=O)C(=O)NNc1ccccc1"
  assigned category: "yes (1)"
- molecule: "COC(C(O)CO)C(O)C(O)C(=O)NNc1ccccc1 (stereo not drawn)"
  assigned category: "yes (1)"
- molecule: "COc1cccc(/C=N/C(/N=C/c2cccc(OC)c2O)c2cccc(OC)c2O)c1O"
  assigned category: "yes (1)"
- molecule: "O=C(c1ccc([N+](=O)[O-])cc1)C1N=NCC1c1ccccc1 (stereo not drawn)"
  assigned category: "yes (1)"
- molecule: "CCCCOC(=O)Nc1ccc(C)c(NC(=O)OCCCC)c1"
  assigned category: "no (0)"
- molecule: "COc1ccc(C/C=N/Nc2ccc([N+](=O)[O-])cc2)cc1OC"
  assigned category: "no (0)"
- molecule: "CCCCCCCCCCCC1N=C(N)NC(CCCO)=C1C(=O)OC (stereo not drawn)"
  assigned category: "yes (1)"
- molecule: "COc1cc(/C=C2\\CCC/C(=C\\c3ccc(O)c(OC)c3)C2=O)ccc1O"
  assigned category: "no (0)"
- molecule: "CC(=O)ON=C1C=CC(=C(C#N)c2ccc(Cl)cc2)C=C1"
  assigned category: "no (0)"
- molecule: "COc1ccc(NC(=O)CC2SC(=Nc3ccccc3C)NC2=O)c([N+](=O)[O-])c1 (stereo not drawn)"
  assigned category: "yes (1)"
- molecule: "O=c1[nH]c(-c2ccccc2)nc2c1sc1nc3ccccc3n12"
  assigned category: "no (0)"
- molecule: "CCCCCCCCCCCC(O)S(=O)(=O)O (stereo not drawn)"
  assigned category: "no (0)"
- molecule: "Cc1cc(O)c(C(C)C)cc1C1(c2cc(C(C)C)c(O)cc2C)OC(=O)c2ccccc21"
  assigned category: "no (0)"
- molecule: "C[C@@](O)(/C=C/[C@H]1CC=CC(=O)O1)[C@@H](C[C@@H](O)\\C=C/C=C\\C=C\\CO)OP(=O)(O)O"
  assigned category: "yes (1)"
- molecule: "O=[N+]([O-])c1cccc2nc3ccccc3c(NCCC[N+]3([O-])CCCCC3)c12"
  assigned category: "yes (1)"
- molecule: "CN(C)N=Nc1ccccc1C(=O)NC#N"
  assigned category: "yes (1)"
- molecule: "CCCCC/C(=C(\\C#N)C(=O)OCC)c1ccccc1"
  assigned category: "no (0)"
- molecule: "CCOc1ccc(NC(=O)C2=C(C)NC(C)=C(C(=O)Nc3ccc(OCC)cc3)C2c2cccc([N+](=O)[O-])c2)cc1"
  assigned category: "yes (1)"
- molecule: "CCOC1Oc2ccccc2-c2nc(N)ncc21 (stereo not drawn)"
  assigned category: "no (0)"
- molecule: "CCN(CC)CCN(C)CCc1ccc(Br)cc1"
  assigned category: "yes (1)"
- molecule: "O=c1ssc(=Nc2ccccc2)n1-c1ccccc1"
  assigned category: "no (0)"
